# Cond: in diethyl ether, 298.15 K
Measurement Type: solubility (mole fraction)
Keep the answer to the number alone.

In plain terms, `Oc1ccccc1/C=N/CC/N=C/c1ccccc1O` has a documented solubility (mole fraction) of 0.0035

* * *

# Cond: in methanol, 308.15 K
Measurement Type: solubility (mole fraction)
Keep the answer to the number alone.

In plain terms, `Oc1ccccc1/C=N/CC/N=C/c1ccccc1O` has a documented solubility (mole fraction) of 0.00125

* * *

# Cond: in dichloromethane, 298.15 K
Measurement Type: solubility (mole fraction)
Keep the answer to the number alone.

In plain terms, `Oc1ccccc1/C=N/CC/N=C/c1ccccc1O` has a documented solubility (mole fraction) of 0.0696

Origin of measurements: BigSolDB 2.1
